Sourced from patent US20230310428A1

- assayed target: various mutants of kinase EGFR (BaF3 cell lines stably transfected with kinase) (Homo sapiens, UniProt P00533)
- Construct: other: BaF3 cells stably transfected with EGFR Δ19Del; MTS, 48 h; other: BaF3 cell line stably transfected with EGFR Δ19Del
- Sequence (P00533 with tags, fused parts or gaps DEL746-750): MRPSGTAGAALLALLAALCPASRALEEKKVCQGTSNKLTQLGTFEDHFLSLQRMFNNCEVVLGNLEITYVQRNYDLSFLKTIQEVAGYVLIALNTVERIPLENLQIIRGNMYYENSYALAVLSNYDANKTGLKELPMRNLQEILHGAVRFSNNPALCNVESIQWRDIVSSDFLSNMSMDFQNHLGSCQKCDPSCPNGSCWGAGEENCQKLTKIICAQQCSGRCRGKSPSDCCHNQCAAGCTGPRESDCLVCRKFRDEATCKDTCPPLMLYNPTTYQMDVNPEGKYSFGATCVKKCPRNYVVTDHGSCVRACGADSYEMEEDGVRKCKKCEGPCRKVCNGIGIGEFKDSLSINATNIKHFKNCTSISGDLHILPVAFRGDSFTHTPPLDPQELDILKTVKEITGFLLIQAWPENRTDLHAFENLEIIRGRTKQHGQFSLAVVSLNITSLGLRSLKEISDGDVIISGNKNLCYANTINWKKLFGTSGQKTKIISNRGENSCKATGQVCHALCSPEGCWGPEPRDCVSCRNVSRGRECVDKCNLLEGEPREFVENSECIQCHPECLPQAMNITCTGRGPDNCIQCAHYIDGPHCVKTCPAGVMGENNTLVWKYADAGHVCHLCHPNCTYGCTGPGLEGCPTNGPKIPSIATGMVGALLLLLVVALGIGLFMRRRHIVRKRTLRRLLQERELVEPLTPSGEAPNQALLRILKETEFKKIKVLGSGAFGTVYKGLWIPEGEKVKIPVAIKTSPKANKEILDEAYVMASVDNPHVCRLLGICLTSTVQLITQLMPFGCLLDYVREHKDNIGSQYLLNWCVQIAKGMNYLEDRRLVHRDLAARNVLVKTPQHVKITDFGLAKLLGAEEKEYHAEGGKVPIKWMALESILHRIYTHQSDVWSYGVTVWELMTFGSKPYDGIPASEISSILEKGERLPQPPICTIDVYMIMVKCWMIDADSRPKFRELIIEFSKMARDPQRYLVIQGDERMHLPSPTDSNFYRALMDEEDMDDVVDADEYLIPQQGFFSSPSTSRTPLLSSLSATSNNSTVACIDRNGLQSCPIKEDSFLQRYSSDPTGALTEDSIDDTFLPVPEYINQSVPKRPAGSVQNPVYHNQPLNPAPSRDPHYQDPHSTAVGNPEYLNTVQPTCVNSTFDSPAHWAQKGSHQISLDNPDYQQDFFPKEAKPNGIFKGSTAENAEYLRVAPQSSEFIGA
- procedure details: Growth inhibitory activity of compounds on BaF3 cell lines stably transfected with kinase (MTS, 48 h)
- Assay type: cell-based
- particulars: BaF3 cell line stably transfected with EGFR Δ19Del, read-out: Δ19Del growth inhibitory activity IC50
- Protocol: The activity of compounds against various mutants of kinase EGFR was evaluated by their effect of inhibiting growth of BaF3 cell lines stably transfected with kinase. The specific test method was given as follows: […] 3) Compound test: cells were incubated into a 96-well culture plate, the volume of cytosol was 90 µL, and then 10 µL of the compound at each gradient concentration was added. […] OD values at 490 nm were measured by a microplate reader (VARIOSKAN FLASH, Thermo). […]
pIC50: −log10 of the molar value.
// reported pIC50 for each item listed

Check out these entries, answers already filled in.
Memo: CN1CCN(C2CCN(c3ccc(Nc4ncc(Cl)c(Nc5ccc6nccnc6c5N(C)S(C)(=O)=O)n4)c(F)c3F)CC2)CC1 , reported pIC50: 6.30 to 7.30

Item: CCc1cc(Nc2nc(Nc3ccc4nccnc4c3N(C)S(C)(=O)=O)c3[nH]ccc3n2)c(OC)cc1N1CCC(N2CCN(C)CC2)CC1 | pIC50: 5.60 to 6.30

Reported pIC50 for CCc1cc(Nc2ncc(C#N)c(Nc3ccc4nccnc4c3N(C)S(C)(=O)=O)n2)ccc1N1CCC(N2CCN(C)CC2)CC1 was ≥ 7.30

In plain terms, COc1cc(N2CCC(N3CCN(C)CC3)CC2)ccc1Nc1ncc(Br)c(Nc2ccc3nccnc3c2NS(C)(=O)=O)n1 has a documented pIC50 of 6.30 to 7.30

// pIC50 lookup, molecule = CCc1cc(Nc2ncc(Br)c(Nc3ccc4nccnc4c3NS(C)(=O)=O)n2)c(OC(F)(F)F)cc1N1CCC(N2CCN(C)CC2)CC1 , result: 6.30 to 7.30

Input CCc1cc(Nc2ncc(CC)c(Nc3ccc4nccnc4c3N(C)S(C)(=O)=O)n2)c(OC(F)(F)F)cc1N1CCC(N2CCN(C)CC2)CC1 . Output pIC50: 6.30 to 7.30

Others:
response.value for C=Cc1cc(Nc2ncc(Cl)c(Nc3ccc4nccnc4c3N(C3CC3)S(C)(=O)=O)n2)c(OC(F)(F)F)cc1N1CCC(N2CCN(C)CC2)CC1 (field: pIC50) = 6.30 to 7.30

Record CCc1cc(Nc2ncc(CC)c(Nc3ccc4nccnc4c3N(C)S(C)(=O)=O)n2)c(OC)cc1N1CCC(N2CCN(C)CC2)CC1 . Reported pIC50: ≥ 7.30

Looking up COc1nc(N2CCC(N3CCN(C)CC3)CC2)ccc1Nc1ncc(Br)c(Nc2ccc3nccnc3c2N(C2CC2)S(C)(=O)=O)n1 , I see its pIC50 listed as 6.30 to 7.30

COc1cc(N2CCC(N(C)C)C2)c(C)cc1Nc1ncc(Br)c(Nc2ccc3nccnc3c2N(C2CC2)S(C)(=O)=O)n1 (centres unmarked) has a reported pIC50 of 6.30 to 7.30

###

Reported IC50 values follow for various compounds
- assayed target: various mutants of kinase EGFR (BaF3 cell lines stably transfected with kinase) (Homo sapiens, UniProt P00533, L858R)
- Construct: expressed in transfected cells; host or cells: BaF3
- Sequence (P00533 25-1210 L858R): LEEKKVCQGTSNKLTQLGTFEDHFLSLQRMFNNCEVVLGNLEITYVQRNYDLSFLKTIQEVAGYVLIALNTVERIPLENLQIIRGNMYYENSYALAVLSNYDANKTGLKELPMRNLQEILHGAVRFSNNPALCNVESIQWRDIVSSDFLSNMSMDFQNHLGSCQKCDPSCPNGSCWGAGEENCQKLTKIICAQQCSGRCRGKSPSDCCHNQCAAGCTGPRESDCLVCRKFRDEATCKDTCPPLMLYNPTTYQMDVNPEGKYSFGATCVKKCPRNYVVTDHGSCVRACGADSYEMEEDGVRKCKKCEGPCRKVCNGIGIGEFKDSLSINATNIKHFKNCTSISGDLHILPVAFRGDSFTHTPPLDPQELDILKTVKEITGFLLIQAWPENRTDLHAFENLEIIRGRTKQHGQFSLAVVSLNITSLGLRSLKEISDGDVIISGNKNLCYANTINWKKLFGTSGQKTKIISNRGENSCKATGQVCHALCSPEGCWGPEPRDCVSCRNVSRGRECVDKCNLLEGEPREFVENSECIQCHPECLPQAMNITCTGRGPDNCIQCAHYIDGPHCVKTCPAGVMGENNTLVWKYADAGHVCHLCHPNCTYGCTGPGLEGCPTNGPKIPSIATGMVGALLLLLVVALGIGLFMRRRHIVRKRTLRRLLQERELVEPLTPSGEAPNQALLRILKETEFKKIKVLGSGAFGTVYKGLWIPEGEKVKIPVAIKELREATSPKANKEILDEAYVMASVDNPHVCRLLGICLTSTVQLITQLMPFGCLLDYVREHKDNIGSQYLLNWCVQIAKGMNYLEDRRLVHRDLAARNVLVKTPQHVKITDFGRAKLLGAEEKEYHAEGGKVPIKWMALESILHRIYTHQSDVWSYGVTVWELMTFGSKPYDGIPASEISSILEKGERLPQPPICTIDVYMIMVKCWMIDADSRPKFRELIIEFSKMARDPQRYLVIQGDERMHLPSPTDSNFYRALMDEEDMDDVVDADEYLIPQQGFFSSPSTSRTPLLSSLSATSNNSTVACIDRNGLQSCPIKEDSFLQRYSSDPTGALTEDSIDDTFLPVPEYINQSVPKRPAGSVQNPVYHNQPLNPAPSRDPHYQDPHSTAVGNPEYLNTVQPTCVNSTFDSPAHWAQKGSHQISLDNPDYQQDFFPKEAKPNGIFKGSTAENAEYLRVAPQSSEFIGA
- procedure details: Growth inhibitory activity of compounds on BaF3 cell lines stably transfected with kinase (MTS, 48 h)
- Type: cell-based
- particulars: BaF3 cell line stably transfected with EGFR L858R, read-out: L858R growth inhibitory activity IC50

Guide cases for IC50, answers given:
Measured IC50 of CCc1cc(Nc2ncc(OC)c(Nc3ccc4nccnc4c3N(C)S(C)(=O)=O)n2)c(OC)cc1N1CCC(N(C)C)C1 (stereo not drawn) [Compound I-335] : ≤ 50 nM

Value of IC50 reported for the compound CCc1cc(Nc2nccc(Nc3ccc4nccnc4c3N(C)S(C)(=O)=O)n2)c(OC)cc1N1CCC(N2CCN(C)CC2)CC1 [Compound I-341] is ≤ 50 nM

Lab note: CCc1cc(Nc2ncc(Br)c(Nc3ccc4nccnc4c3NS(C)(=O)=O)n2)c(OC)cc1C(=O)N1CCC(N2CCN(C)CC2)CC1 [Compound I-361] gave IC50 of 500 to 2500 nM

IC50 for COc1cc(N2CCC(N3CCN(C)CC3)CC2)c(Cc2ccccc2)cc1Nc1nc(Nc2ccc3nccnc3c2N(C)S(C)(=O)=O)c2occc2n1 [II-1-44] is 500 to 2500 nM

Note to self: IC50 recorded for COc1ccc(N2CCC(O)CC2)cc1Nc1ncc(Br)c(Nc2ccc3nccnc3c2N(C)S(=O)(=O)C2CC2)n1 [Compound I-375] was ≤ 50 nM

Others:
# IC50 (compound: C=Cc1cc(Nc2ncc(Cl)c(Nc3ccc4nccnc4c3N(C3CC3)S(C)(=O)=O)n2)c(OC(F)(F)F)cc1N1CCC(N2CCN(C)CC2)CC1 [Compound I-304] ) is 50 to 500 nM

###

Reported pIC50 values for the following compounds.
- assayed target: various mutants of kinase EGFR (BaF3 cell lines stably transfected with kinase) (Homo sapiens, UniProt P00533)
- Construct: other: BaF3 cells stably transfected with EGFR Δ19Del; MTS, 48 h; other: BaF3 cell line stably transfected with EGFR Δ19Del
- procedure details: Growth inhibitory activity of compounds on BaF3 cell lines stably transfected with kinase (MTS, 48 h)
- Assay type: cell-based
- particulars: BaF3 cells stably transfected with EGFR Δ19Del, read-out: IC50, growth inhibition, Δ19Del
pIC50: −log10 of the molar value.

Solved cases below.
// sample Cc1cc(Nc2ncc(Br)c(Nc3ccc4nccnc4c3N(C)S(C)(=O)=O)n2)c(OC(C)C)cc1C1CCN(C)CC1 , its pIC50 was 5.60 to 6.30

Just so you know, measured pIC50 for C=Cc1cc(Nc2ncc(Cl)c(Nc3ccc4nccnc4c3N(CC)S(C)(=O)=O)n2)c(OC(F)(F)F)cc1N1CCC(N2CCN(C)CC2)CC1 came out at 6.30 to 7.30

pIC50 in this record for COc1nc(N2CCC(N3CCN(C)CC3)CC2)ccc1Nc1ncc(Br)c(Nc2ccc3nccnc3c2N(C)S(C)(=O)=O)n1 : 6.30 to 7.30

***
The recorded pIC50 for entry COc1cc(N2CCC(N(C)C)CC2)c(C)cc1Nc1ncc(Cl)c(Nc2ccc3nccnc3c2N(C)S(C)(=O)=O)n1 equals ≥ 7.30

# compound CN1CCN(c2ccc(Nc3ncc(Br)c(Nc4ccc5nccnc5c4N(C)S(C)(=O)=O)n3)cn2)CC1 ; its pIC50 = ≥ 7.30

Item: CCc1cc(Nc2ncc(F)c(Nc3ccc4nccnc4c3N(C)S(=O)(=O)C3CC3)n2)c(OC(F)(F)F)cc1N1CCC(N2CCN(C)CC2)CC1 | pIC50: 6.30 to 7.30

So, CCc1cc(Nc2ncc(Br)c(Nc3ccc4nccnc4c3N(CC)S(C)(=O)=O)n2)c(OC)cc1N1CCC(N(C)C)CC1 ? Its pIC50 was ≥ 7.30

###

Catalogue of compounds with associated IC50
- assayed target: various mutants of kinase EGFR (BaF3 cell lines stably transfected with kinase) (Homo sapiens, UniProt P00533, T790M/C797S, form not given)
- Construct: other: BaF3 cells stably transfected with EGFR Δ19Del/T790M/C797S; MTS, 48; other: BaF3 cell line stably transfected with EGFR Δ19Del/T790M/C7
- Sequence (P00533 with tags, fused parts or gaps DEL746-750/T790M/C797S, form open): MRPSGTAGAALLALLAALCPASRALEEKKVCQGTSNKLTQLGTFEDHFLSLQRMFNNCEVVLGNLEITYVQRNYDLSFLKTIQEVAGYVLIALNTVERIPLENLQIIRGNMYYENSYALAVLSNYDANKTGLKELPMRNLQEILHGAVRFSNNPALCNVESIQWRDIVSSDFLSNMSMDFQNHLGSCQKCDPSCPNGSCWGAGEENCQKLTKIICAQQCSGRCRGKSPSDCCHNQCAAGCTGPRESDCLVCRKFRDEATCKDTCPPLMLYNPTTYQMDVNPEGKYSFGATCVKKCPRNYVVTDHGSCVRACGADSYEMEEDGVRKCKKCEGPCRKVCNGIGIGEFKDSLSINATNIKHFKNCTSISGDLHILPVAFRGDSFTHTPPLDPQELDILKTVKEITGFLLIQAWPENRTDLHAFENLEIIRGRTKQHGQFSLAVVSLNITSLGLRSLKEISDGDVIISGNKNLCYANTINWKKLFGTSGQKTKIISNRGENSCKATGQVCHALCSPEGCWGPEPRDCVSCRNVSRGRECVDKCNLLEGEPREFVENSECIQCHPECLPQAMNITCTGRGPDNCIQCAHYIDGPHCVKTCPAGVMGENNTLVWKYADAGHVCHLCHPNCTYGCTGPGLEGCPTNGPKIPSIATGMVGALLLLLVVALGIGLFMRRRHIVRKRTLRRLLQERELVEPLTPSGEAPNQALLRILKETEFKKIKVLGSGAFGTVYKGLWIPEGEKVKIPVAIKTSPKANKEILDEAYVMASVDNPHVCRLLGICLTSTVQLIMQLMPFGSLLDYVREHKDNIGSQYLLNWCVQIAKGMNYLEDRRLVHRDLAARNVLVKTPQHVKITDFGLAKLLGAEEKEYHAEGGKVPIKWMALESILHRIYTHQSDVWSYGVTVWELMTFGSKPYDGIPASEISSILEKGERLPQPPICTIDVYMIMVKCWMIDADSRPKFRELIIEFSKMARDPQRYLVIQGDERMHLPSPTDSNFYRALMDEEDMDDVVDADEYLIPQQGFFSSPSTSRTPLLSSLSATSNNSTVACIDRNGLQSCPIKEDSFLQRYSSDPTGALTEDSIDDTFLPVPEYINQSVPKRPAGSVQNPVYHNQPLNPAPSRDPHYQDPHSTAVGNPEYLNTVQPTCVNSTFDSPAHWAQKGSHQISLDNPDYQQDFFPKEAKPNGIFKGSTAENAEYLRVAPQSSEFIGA
- procedure details: Growth inhibitory activity of compounds on BaF3 cell lines stably transfected with kinase (MTS, 48 h)
- Format: cell-based
- particulars: BaF3 cell line stably transfected with EGFR Δ19Del/T790M/C797S, read-out: Δ19Del/T790M/ C797S growth inhibitory activity IC50

Example results:
Quick note, IC50 for CCc1cc(Nc2nc(Nc3ccc4nccnc4c3N(C)S(C)(=O)=O)c3sccc3n2)c(OC)cc1N1CCC(N2CCN(C)CC2)CC1 [II-1-3] landed at ≤ 50 nM

Note to self: IC50 recorded for COc1ccc(N2CCC(O)CC2)cc1Nc1ncc(Br)c(Nc2ccc3nccnc3c2N(C)S(=O)(=O)C(F)(F)F)n1 [Compound I-371] was ≤ 50 nM

Recorded result, CCc1cc(Nc2ncc(C)c(Nc3ccc4nccnc4c3N(C)S(C)(=O)=O)n2)c(OC(F)(F)F)cc1N1CCC(N2CCN(C)CC2)CC1 [Compound I-314] , IC50: ≤ 50 nM

The reported value for C=Cc1cc(Nc2ncc(Br)c(Nc3ccc4nccnc4c3N(C3CC3)S(C)(=O)=O)n2)c(OC(F)(F)F)cc1N1CCC(N2CCN(C)CC2)CC1 [Compound I-307] in terms of IC50 is 50 to 500 nM

Record CN1CCN(C2CCN(c3c(F)cc(Nc4ncc(Br)c(Nc5ccc6nccnc6c5NS(C)(=O)=O)n4)cc3F)CC2)CC1 [Compound I-360] . Reported IC50: 50 to 500 nM

***
# compound COc1ccc(N2CCC(O)CC2)cc1Nc1ncc(C)c(Nc2ccc3nccnc3c2N(C)S(C)(=O)=O)n1 [Compound I-362] ; its IC50 = ≤ 50 nM

The value of IC50 measured for the compound CCn1cc(Nc2ncc(Br)c(Nc3ccc4nccnc4c3N(C)S(C)(=O)=O)n2)c(C)n1 [Compound I-387] turned out to be 50 to 500 nM
